// data source = paper PMC6804997

# experimentalSystem: HDAC6 (Homo sapiens, UniProt Q9UBN7)
# Sequence (Q9UBN7 1-1215): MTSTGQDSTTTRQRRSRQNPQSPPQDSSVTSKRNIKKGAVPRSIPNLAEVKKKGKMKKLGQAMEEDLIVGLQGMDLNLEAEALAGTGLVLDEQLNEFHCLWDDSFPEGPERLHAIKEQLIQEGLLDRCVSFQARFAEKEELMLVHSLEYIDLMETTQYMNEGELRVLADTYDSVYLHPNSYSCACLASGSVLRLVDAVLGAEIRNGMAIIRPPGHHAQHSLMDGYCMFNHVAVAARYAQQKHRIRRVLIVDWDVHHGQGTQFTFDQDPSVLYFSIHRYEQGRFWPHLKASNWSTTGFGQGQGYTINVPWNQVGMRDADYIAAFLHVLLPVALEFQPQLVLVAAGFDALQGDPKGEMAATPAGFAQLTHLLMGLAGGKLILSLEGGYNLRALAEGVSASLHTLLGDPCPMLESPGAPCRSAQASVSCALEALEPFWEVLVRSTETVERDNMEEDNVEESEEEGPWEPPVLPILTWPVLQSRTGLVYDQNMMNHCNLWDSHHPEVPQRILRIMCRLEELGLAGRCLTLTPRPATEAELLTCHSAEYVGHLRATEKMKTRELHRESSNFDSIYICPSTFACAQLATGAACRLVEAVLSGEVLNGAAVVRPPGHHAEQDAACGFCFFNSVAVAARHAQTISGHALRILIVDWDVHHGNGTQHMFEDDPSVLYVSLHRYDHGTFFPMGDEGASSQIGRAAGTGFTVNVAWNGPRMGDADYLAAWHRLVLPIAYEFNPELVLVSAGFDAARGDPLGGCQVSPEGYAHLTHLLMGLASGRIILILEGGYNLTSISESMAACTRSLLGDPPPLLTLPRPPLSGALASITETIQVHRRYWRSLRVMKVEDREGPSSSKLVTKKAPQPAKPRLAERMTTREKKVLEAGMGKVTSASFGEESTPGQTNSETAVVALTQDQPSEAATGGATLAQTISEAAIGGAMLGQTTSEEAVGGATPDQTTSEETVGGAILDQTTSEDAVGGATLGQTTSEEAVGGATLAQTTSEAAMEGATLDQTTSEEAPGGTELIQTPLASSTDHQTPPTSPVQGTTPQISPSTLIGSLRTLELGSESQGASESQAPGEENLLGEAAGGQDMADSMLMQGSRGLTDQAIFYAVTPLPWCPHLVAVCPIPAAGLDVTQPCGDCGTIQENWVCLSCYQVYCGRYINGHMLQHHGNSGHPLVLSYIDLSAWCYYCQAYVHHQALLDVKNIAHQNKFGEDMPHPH
reportedEndpoint: IC50 (nM)
Note: unit nM is implicit; provide only the numeric part.

Query: Form: Entry = Cc1nc(N(C)c2ccc(Oc3ccc(C(=O)NO)cn3)cc2)c2ccccc2n1 | System = HDAC6 (Homo sapiens, UniProt Q9UBN7) | IC50 = ____
Reply: 5.8

###

# experimentalSystem: UniProt P56524
# Sequence (P56524 whole entry, species assumed): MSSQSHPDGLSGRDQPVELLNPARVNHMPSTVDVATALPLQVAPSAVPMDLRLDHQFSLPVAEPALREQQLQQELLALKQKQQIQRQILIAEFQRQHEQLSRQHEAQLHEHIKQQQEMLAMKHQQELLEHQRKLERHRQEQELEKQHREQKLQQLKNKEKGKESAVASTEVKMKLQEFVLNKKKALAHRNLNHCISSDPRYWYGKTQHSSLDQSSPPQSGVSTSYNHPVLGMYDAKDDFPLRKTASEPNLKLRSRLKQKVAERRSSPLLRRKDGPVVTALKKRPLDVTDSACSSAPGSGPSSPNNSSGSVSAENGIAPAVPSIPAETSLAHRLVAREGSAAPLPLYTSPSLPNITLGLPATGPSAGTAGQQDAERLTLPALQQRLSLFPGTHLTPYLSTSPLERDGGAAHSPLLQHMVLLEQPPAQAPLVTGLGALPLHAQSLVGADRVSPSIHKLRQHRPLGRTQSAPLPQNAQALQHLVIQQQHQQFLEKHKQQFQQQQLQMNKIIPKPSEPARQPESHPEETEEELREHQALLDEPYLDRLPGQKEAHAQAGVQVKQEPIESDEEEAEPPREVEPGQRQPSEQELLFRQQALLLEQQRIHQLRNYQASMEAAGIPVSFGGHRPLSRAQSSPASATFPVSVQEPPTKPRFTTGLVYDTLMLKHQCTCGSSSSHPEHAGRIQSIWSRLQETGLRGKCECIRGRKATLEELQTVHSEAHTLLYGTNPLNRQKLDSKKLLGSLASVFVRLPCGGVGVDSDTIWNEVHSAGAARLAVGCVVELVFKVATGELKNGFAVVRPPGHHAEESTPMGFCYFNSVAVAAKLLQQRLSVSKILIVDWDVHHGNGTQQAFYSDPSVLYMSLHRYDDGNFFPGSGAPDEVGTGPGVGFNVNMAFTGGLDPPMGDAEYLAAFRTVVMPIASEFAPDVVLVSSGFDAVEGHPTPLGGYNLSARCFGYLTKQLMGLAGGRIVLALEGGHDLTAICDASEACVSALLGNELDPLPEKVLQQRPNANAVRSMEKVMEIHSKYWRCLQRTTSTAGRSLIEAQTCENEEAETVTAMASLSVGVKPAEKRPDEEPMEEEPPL
reportedEndpoint: IC50

Query: Field: IC50 (UniProt P56524). Entry: Cc1nc(N(C)c2ccc(Oc3ccc(C(=O)NO)cn3)cc2)c2ccccc2n1 [F7]
Reply: > 10 µM
